Experiment: Oral bioavailability in monkey at 10 mg/kg
Type: ADME, organism-based, Macaca mulatta
Details: rhesus monkey, in vivo

mol_smiles	unit_abbrev	bioavailability
CCOc1cc(NC(=O)C2(NC(=O)c3ccc4c(C5CCCC5)c(-c5ncc(Cl)cn5)n(C)c4c3)CCC2)ccc1/C=C/C(=O)O	%	72
Cn1c(-c2ccccn2)c(C2CCCC2)c2ccc(C(=O)NC3(C(=O)Nc4ccc(/C=C/C(=O)O)cc4)CCC3)cc21	%	70

* * *

pIC50: −log10 of the molar value.
Entries below carry reported pIC50 on Cytochrome P450 2C9 (Homo sapiens, UniProt P11712).
Sequence (P11712 whole entry): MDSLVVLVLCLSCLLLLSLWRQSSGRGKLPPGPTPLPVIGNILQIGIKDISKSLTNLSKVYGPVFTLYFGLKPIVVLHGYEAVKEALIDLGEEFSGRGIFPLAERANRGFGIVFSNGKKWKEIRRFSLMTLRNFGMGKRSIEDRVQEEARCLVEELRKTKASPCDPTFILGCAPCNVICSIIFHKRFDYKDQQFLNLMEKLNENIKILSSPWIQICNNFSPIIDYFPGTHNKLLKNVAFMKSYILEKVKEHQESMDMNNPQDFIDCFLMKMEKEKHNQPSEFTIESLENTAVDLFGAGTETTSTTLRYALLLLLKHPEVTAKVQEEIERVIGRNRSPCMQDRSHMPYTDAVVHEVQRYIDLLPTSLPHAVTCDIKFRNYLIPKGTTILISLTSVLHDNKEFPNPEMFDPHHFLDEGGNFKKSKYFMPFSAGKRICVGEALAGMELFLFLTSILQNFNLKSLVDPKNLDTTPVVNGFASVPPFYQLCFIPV
measured_property: pIC50

mol_smiles	quantitative_readout
Cn1c(-c2ccccn2)c(C2CCCC2)c2ccc(C(=O)NC3(C(=O)Nc4ccc(/C=C/C(=O)O)cc4)CCC3)cc21	5.46
CCOc1cc(NC(=O)C2(NC(=O)c3ccc4c(C5CCCC5)c(-c5ncc(Cl)cn5)n(C)c4c3)CCC2)ccc1/C=C/C(=O)O	4.87
